B1: SPSB1 (parent)
chain: DMRDPTYRPLKQELQGLDYCKPTR

# Variants of: B1
# assay.details: protein stability index of a GFP-peptide fusion (GPS, HEK-293T) (PSI 1-6); higher = more stable;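 further: lentivirally expressed fusions sorted by FACS into six bins by GFP to DsRed ratio, PSI derived from sequencing read proportions per bin multiplied by bin number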
# applied.conditions: c terminus: a fixed tail appended
readout: protein stability index

>>> readout_value("M2F")
3.42
>>> readout_value("L14G")
4.04
>>> readout_value("Q12T")
3.43
>>> readout_value("P5H")
3.88
>>> readout_value("D1Y")
2.99
>>> readout_value("M2L")
3.01
>>> readout_value("T6L")
2.71
>>> readout_value("L17N")
4.33

The reported protein stability index of the variant "R24M" was 1.64

Memo: "K11T" , reported protein stability index: 3.17
